Molecular target: GAL4 DBD-ERβ LBD (Homo sapiens)
Sequence (Q92731 264-498 limits assumed): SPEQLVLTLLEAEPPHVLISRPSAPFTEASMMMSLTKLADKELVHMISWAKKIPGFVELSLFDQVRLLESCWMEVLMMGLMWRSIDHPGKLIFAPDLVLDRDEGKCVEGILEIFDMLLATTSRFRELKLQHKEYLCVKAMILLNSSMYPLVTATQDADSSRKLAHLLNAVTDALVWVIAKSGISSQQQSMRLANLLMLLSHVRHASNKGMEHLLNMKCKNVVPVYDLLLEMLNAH
Assay: GAL4 transactivation assay in HEK293T cells
pIC50: −log10 of the molar value. Structures can show the parent of a compound that is named as a salt.

compound	tested.system	pIC50
CCN(CC)CCOc1ccc(C(=C(Cl)c2ccccc2)c2ccccc2)cc1 [clomiphene citrate]	GAL4 DBD-ERβ LBD (Homo sapiens)	6.66

###

Target: His6-hERβ LBD (Homo sapiens)
Sequence (Q92731 261-530): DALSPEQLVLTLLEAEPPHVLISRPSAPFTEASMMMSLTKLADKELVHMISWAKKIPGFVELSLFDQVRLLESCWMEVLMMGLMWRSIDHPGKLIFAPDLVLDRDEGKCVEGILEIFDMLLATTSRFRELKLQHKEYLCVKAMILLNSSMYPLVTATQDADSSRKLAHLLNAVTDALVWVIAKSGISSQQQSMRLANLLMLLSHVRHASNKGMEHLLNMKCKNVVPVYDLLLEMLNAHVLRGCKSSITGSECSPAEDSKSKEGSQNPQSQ
Format: binding
Conditions: 500 µM
Counter-ions that a name gives are not always drawn.
measure.name: DSF primary screen: change in melting temperature of ERβ LBD

molecule	assay.value
COc1cc(/C=C/c2ccc(O)cc2)cc(OC)c1	putative binders
CCN(CC)CCOc1ccc(C(=C(Cl)c2ccccc2)c2ccccc2)cc1 [clomiphene citrate]	putative binders
O=C1C[C@@H](c2ccc(O)cc2)Oc2cc(O)cc(O)c21	putative binders

###

Molecular target: His6-hERβ LBD (Homo sapiens)
Assay type: binding
Conditions: 500 µM
measure.name: DSF primary screen: change in melting temperature of ERβ LBD

compound	tested.system	assay.value
C[C@]12CC[C@H](O)CC1=CC[C@@H]1[C@@H]2CC[C@]2(C)C(=O)CC[C@@H]12 [DHEA, dehydroepiandrosterone]	His6-hERβ LBD (Homo sapiens)	putative binders
C[C@]12CC[C@H]3C(=CCc4cc(O)ccc43)[C@@H]1CCC2=O [equilin]	His6-hERβ LBD (Homo sapiens)	putative binders
CC[C@]1(O)CC[C@H]2[C@@H]3CCC4=CCCC[C@@H]4[C@H]3CC[C@@]21C [ethylestrenol]	His6-hERβ LBD (Homo sapiens)	putative binders
CC[C@H](c1ccc(O)cc1)[C@@H](CC)c1ccc(O)cc1 [hexestrol, reference compound]	His6-hERβ LBD (Homo sapiens)	putative binders
C#C[C@]1(O)CC[C@H]2[C@@H]3CCc4cc(O)ccc4[C@H]3CC[C@@]21C [ethinyl estradiol]	His6-hERβ LBD (Homo sapiens)	putative binders
